Would you mind telling me the reported IC50 of each entry?
tested on: CCRF-CEM; assay: Cytostatic activity against human CEM cells expressing human ENT1 transporter after 72 hrs by cell counting; type: functional, cell-based
Please reply with the bare figure in nM and do not write the unit itself.

Challenge: So what's the measured IC50 for this one? CCOC(=O)C(C)(C)NP(=O)(OC[C@H]1O[C@@H](n2cc(F)c(=O)[nH]c2=O)C[C@@H]1O)Oc1ccccc1 (mixture of isomers)
Response given: 370

Challenge: So what's the measured IC50 for this one? O=c1[nH]c(=O)n([C@H]2C[C@H](O)[C@@H](COP(=O)(O)O)O2)cc1F [5-FLUORODEOXYURIDYLATE]
Response given: 50

Challenge: So what's the measured IC50 for this one? CC(C)(NP(=O)(OC[C@H]1O[C@@H](n2cc(F)c(=O)[nH]c2=O)C[C@@H]1O)Oc1ccccc1)C(=O)OCc1ccccc1 (mixture of isomers)
Response given: 170

Challenge: So what's the measured IC50 for this one? C[C@H](NP(=O)(OC[C@H]1O[C@@H](n2cc(F)c(=O)[nH]c2=O)C[C@@H]1O)Oc1ccccc1)C(=O)OCc1ccccc1 (mixture of isomers)
Response given: 130

Challenge: So what's the measured IC50 for this one? CCOC(=O)C(C)(C)NP(=O)(OC[C@H]1O[C@@H](n2cc(F)c(=O)[nH]c2=O)C[C@@H]1O)Oc1cccc2ccccc12 (mixture of isomers)
Response given: 210

Challenge: So what's the measured IC50 for this one? O=c1[nH]c(=O)n([C@H]2C[C@H](O)[C@@H](CO)O2)cc1F
Response given: 40

Challenge: So what's the measured IC50 for this one? CC(C)(NP(=O)(OC[C@H]1O[C@@H](n2cc(F)c(=O)[nH]c2=O)C[C@@H]1O)Oc1cccc2ccccc12)C(=O)OCc1ccccc1 (mixture of isomers)
Response given: 50

Challenge: So what's the measured IC50 for this one? C[C@H](NP(=O)(OC[C@H]1O[C@@H](n2cc(F)c(=O)[nH]c2=O)C[C@@H]1O)Oc1cccc2ccccc12)C(=O)OCc1ccccc1 (mixture of isomers) [FOSIFLOXURIDINE NAFALBENAMIDE]
Response given: 50
